- Test system: MDA-MB-231
- test.protocol: NCI tumour cell line growth inhibition, 48 h
Active and inactive are the calls of the source. Rule as the data show it: active = GI50 up to about 1.1 µM and inactive = higher.
Listing: GI50 of selected compounds

// known answers, use as guide
> print(dat)
                                   compound  experimental.system      recorded.result
1  CCC(C#N)NCc1ccc(CNC(C#N)CC)cc1 (stereo not drawn)           MDA-MB-231  > 100 µM (inactive)
2  Oc1ccc(-c2nc3cc(C(F)(F)F)ccc3n2CC2CCCN3CCCCC23)cc1 (stereo not drawn)           MDA-MB-231   14.5 µM (inactive)

I have this compound here, C=C1C(=O)O[C@@H]2/C=C(\C)CC/C=C(/COC(C)=O)C[C@@H](OC(C)=O)[C@@H]12 , and I need its recorded GI50.
14.9 µM (inactive)

----------
Listing: GI50 of selected compounds
- Tested on: XF498
- test.protocol: NCI tumour cell line growth inhibition, 48 h
Active and inactive are the calls of the source. Rule as the data show it: active = GI50 up to about 1.1 µM and inactive = higher.

// known answers, use as guide
> print(dat)
                                   compound      recorded.result
1  O=C(Cc1ccccc1)N/N=C(/c1nc2ccc([N+](=O)[O-])cc2nc1O)C(O)c1ccccc1Cl (stereo not drawn)  > 100 µM (inactive)
2  CC1(c2cccc(N)c2)C2C(=O)NC(=O)C1C(=O)NC2=O (stereo not drawn)   21.8 µM (inactive)

Below: the item to evaluate.
I have this compound here, Nc1ccc(S(=O)(=O)Nc2cnc3ccccc3n2)cc1 [SULFAQUINOXALINE] , and I need its recorded GI50.
> 100 µM (inactive)

----------
Listing: GI50 of selected compounds
- Tested on: K562
- test.protocol: NCI tumour cell line growth inhibition, 48 h
Activity calls are given as the source filed them. Rule as the data show it: active = GI50 up to about 1.1 µM and inactive = higher.

compound	GI50
C/C(CN1C(=O)c2ccccc2C1=O)=N\NS(=O)(=O)c1cccc([N+](=O)[O-])c1	> 100 µM (inactive)
O=c1c2cccnc2[s+]([O-])n1Cc1ccccc1 (centres undefined)	> 100 µM (inactive)
CCN1CCCC(C#N)(c2ccccc2)CC1 (centres undefined)	> 100 µM (inactive)

I have this compound here, CC1(/C=C/CCSc2ccccc2)CC(=O)C2CC1C2(C)C (centres undefined) , and I need its recorded GI50.
5.79 µM (inactive)

And c1ccc2c(c1)SC1=Nc3sc4ccccc4[n+]3CN12 ?
6.12 µM (inactive)

----------
- System: SK-MEL-5
- test.protocol: NCI tumour cell line growth inhibition, 48 h
The source made the active and inactive calls. No stated cut-off is given here; in the data, active = GI50 up to about 1.1 µM and inactive = higher.
readout.name: GI50

// known answers, use as guide
> print(dat)
                                smiles.repr      recorded.result
1  COc1cc2cnc3c4cc(OC(C)C)c(OC)cc4ccc3c2cc1OC  > 100 µM (inactive)
2       C/C(=N/NC(=S)Nc1cccc(Cl)c1)c1ccccn1     0.37 µM (active)
3      Cn1c(=O)c(Cl)c(N=[N+]=[N-])c2ccccc21   65.5 µM (inactive)
4  COc1cc(S(=O)(=O)Nc2nc(-c3ccc(N4C(=O)/C(=C/c5ccccc5[N+](=O)[O-])N=C4c4ccccc4)cc3)cs2)ccc1Cl   48.9 µM (inactive)

For the record COc1ccc(Cc2c3cc(O)c([O-])cc3cc[n+]2C)cc1 , what value of GI50 is listed for SK-MEL-5?
20.6 µM (inactive)
